# Test system: LXRb:RXRa (NR concentration 270 nM, RXRa partner concentration 90 nM)
# Assay Protocol: PBM binding z-score (relative to random genomic background probes); higher = stronger binding; sequences stand for … in GC…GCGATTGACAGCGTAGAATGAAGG
Recorded PBM binding z-score determines the label; the label ranges are lo (below 0.7), mid (0.7 to below 2), hi (2 or more)

Residue String: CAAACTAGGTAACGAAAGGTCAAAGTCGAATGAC
Label: hi
//
Residue String: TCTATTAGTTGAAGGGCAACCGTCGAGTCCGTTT
Label: mid
//
Residue String: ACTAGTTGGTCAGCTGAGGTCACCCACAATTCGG
Label: hi
//
Residue String: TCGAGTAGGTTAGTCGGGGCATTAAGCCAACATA
Label: lo
//
Residue String: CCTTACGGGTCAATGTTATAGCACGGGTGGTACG
Label: hi
//
Residue String: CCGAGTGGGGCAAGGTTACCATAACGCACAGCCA
Label: lo
//
Residue String: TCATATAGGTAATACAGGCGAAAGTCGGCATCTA
Label: lo
//
Residue String: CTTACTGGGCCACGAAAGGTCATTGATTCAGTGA
Label: hi
//
Residue String: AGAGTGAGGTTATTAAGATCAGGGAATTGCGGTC
Label: mid
//
Residue String: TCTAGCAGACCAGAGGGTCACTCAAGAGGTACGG
Label: mid
//
Residue String: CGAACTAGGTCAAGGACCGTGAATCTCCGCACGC
Label: mid
//
Residue String: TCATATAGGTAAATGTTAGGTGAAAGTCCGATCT
Label: mid
//
Residue String: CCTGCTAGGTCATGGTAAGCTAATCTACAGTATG
Label: mid
//
Residue String: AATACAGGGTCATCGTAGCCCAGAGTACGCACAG
Label: hi
//
Residue String: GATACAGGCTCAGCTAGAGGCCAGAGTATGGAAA
Label: lo
//
Residue String: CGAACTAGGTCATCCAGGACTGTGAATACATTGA
Label: hi
//
Residue String: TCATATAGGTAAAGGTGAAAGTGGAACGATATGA
Label: mid
//
Residue String: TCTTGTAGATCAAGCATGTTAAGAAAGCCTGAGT
Label: lo
//
Residue String: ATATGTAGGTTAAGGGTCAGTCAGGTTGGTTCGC
Label: hi
//
Residue String: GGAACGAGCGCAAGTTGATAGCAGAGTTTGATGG
Label: lo
//
Residue String: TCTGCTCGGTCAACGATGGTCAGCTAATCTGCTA
Label: lo
//
Residue String: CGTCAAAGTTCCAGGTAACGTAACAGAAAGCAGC
Label: lo
//
Residue String: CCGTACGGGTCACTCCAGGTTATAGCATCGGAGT
Label: hi
//
Residue String: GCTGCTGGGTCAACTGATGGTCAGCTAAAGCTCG
Label: mid
//
Residue String: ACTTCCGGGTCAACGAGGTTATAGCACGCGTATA
Label: hi
//
Residue String: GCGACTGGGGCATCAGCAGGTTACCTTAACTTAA
Label: mid
//
Residue String: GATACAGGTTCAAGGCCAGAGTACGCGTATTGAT
Label: mid
//
Residue String: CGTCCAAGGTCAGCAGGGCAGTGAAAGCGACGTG
Label: hi
//
Residue String: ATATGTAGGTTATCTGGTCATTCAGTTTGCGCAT
Label: mid
//
Residue String: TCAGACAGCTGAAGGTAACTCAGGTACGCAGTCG
Label: lo
//
Residue String: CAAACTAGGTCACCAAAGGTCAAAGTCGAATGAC
Label: hi
//
Residue String: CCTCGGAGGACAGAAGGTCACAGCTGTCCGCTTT
Label: hi
//
Residue String: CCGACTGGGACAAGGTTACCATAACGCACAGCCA
Label: lo
//
Residue String: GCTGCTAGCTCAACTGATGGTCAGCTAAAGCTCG
Label: lo
//
Residue String: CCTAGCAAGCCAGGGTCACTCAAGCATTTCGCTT
Label: hi
//
Residue String: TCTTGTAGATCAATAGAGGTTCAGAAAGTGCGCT
Label: lo
//
Residue String: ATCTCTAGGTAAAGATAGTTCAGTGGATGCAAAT
Label: lo
//
Residue String: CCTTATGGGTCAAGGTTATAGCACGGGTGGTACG
Label: hi
//
Residue String: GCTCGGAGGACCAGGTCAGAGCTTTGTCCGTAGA
Label: lo
//
Residue String: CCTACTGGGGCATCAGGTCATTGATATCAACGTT
Label: mid
//
Residue String: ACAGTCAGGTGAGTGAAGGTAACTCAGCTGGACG
Label: lo
//
Residue String: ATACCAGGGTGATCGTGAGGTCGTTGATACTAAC
Label: mid
//
Residue String: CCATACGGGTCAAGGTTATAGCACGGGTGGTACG
Label: hi
//
Residue String: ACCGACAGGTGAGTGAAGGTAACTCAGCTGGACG
Label: lo
//
Residue String: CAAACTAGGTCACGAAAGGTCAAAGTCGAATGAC
Label: hi
//
Residue String: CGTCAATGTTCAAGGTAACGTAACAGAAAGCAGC
Label: lo
//
Residue String: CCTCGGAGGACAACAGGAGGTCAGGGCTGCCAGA
Label: mid
//
Residue String: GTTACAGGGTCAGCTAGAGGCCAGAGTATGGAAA
Label: hi
//
Residue String: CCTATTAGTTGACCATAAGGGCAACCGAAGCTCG
Label: mid
